Where these numbers come from: patent US6630331B1

molecular target: recombinant Lotus pantothenate synthetase (Lotus japonicus, UniProt O24035); assay: Activity of recombinant Lotus pantothenate synthetase in the presence of potential effectors; format: biochemical; parameters: the processed recombinant protein (3-proline through 308-leucine) has a theoretical mass of 34,037.7 Da; made in house; host or cells: E. coli AT1371 (panC) transformed with pSKL; conditions: read-out: Final activity [%]
Sequence (O24035 3-308): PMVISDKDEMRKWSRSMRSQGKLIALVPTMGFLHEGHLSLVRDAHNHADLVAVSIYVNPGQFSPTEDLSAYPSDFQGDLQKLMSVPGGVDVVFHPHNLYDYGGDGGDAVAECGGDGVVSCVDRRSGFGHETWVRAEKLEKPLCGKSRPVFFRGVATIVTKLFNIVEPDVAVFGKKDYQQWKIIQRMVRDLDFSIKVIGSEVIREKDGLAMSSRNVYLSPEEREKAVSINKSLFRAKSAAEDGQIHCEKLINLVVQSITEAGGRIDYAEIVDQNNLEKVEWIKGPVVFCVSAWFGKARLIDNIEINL

STRUCTURE_NOTATION | activity at 100 µM
CC(C)(COP(=O)(O)OP(=O)(O)OC[C@H]1O[C@@H](n2cnc3c(N)ncnc32)[C@H](O)[C@@H]1OP(=O)(O)O)[C@@H](O)C(=O)NCCC(=O)NCCS | 100%
CCCCCC/C=C\CCCCCCCC(=O)O | 100%
CC(C)(COP(=O)(O)OP(=O)(O)OC[C@H]1O[C@@H](n2cnc3c(N)ncnc32)[C@H](O)[C@@H]1OP(=O)(O)O)[C@@H](O)C(=O)NCCC(=O)NCCSC(=O)CC(=O)O | 92%
CC(=O)SCCNC(=O)CCNC(=O)[C@H](O)C(C)(C)COP(=O)(O)OP(=O)(O)OC[C@H]1O[C@@H](n2cnc3c(N)ncnc32)[C@H](O)[C@@H]1OP(=O)(O)O | 93%

* * *

biological target: recombinant Lotus pantothenate synthetase (Lotus japonicus); assay: Activity of recombinant Lotus pantothenate synthetase in the presence of potential effectors; type: biochemical; design: the processed recombinant protein (3-proline through 308-leucine) has a theoretical mass of 34,037.7 Da; made in house; host or cells: E. coli AT1371 (panC) transformed with pSKL; details: effector 1 mM; pantoate 0.1 mM, β-alanine 1.0 mM; % of activity without effector
Listed here: items and their measured Final activity [%].

MOLECULE | Final activity [%] (%)
CC1(C)COC(=O)[C@@H]1O [Pantoyl-lactone, pantoyl-lactone] | 92
O=P(O)(O)OP(=O)(O)O [Pyrophosphate] | 78
CC(C)(CO)C(=O)C(=O)O [Ketopantoate, ketopantoate] | 97
CC(C)C(=O)C(=O)O [a-KIVA] | 89
